B1: TOR1AIP2 (parent)
chain: DGAGRTWQDSDTVKLLVDLELSYG

variants of: B1; assay: protein stability index of a GFP-peptide fusion (GPS, HEK-293T) (PSI 1-6); higher = more stable; details: c terminus: a fixed tail appended;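 also: lentivirally expressed fusions sorted by FACS into six bins by GFP to DsRed ratio, PSI derived from sequencing read proportions per bin multiplied by bin number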
We use 3 as the dividing line for protein stability index: on or above the line is Met, below is Not met.

The following variants have reported results that may help.
Q8Y	Not met
G4K	Not met
V17Y	Not met
R5I	Not met
V17G	Met

Problem: API: above_or_equal(metric=protein stability index, cutoff=3) for item Y23N
Solution: Not met

Problem: Hi team, for S22T , is the recorded protein stability index at or above 3?
Solution: Not met

Problem: Tell me whether protein stability index is at least 3 here: E20Y
Solution: Not met
